Reported DiscoveRx β-arrestin2 Ymax (%) values are given for each entry in this list.
- system_under_test: AGTR1 (Homo sapiens, UniProt P30556)
- Construct: host or cells: Pathunter CHO-K1 AGTR1 β-arrestin cell line (CHO-K1)
- Sequence (P30556 whole entry): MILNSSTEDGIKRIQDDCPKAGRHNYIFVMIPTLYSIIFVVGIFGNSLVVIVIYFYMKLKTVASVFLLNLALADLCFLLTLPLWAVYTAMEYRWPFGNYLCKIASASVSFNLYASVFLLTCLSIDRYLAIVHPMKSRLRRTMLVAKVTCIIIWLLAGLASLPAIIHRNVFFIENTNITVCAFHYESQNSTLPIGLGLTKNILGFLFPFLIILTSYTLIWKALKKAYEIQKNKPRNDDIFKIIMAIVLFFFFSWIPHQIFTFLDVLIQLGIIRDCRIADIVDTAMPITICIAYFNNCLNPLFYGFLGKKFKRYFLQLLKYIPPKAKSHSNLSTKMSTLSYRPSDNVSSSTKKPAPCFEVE
- experiment_summary: DiscoveRx β-arrestin2 recruitment assay (enzyme complementation, Pathunter CHO-K1 AGTR1 β-arrestin cell line)
- Type: cell-based
- test_parameters: DiscoveRx β-arrestin2 recruitment, maximal response
Report the value in % with no unit label.

// known answers, use as guide
CCCCc1nc(Cl)c(C(=O)O)n1Cc1ccc(-c2cc(-c3cccc4[nH]ccc34)ccc2-c2nn[nH]n2)cc1
29.2
CCCCc1ncc(C(=O)N2CCC2)n1Cc1ccc(-c2cc(-c3ccccc3)ccc2-c2nn[nH]n2)cc1
26.8
CCc1nc2c(C)cc(C)nc2n1Cc1ccc(-c2cc(-n3cc(C4CC4)nn3)ccc2-c2nnn[nH]2)cc1
35.4
CCc1nc2c(C)cc(C)nc2n1Cc1ncc(-c2cc(-c3cccc(C)c3)ccc2-c2nnn[nH]2)cn1
53.3
CCCCc1ncc(C(=O)NCCC(C)(C)O)n1Cc1ccc(-c2cc(-c3ccccc3)ccc2-c2nn[nH]n2)cc1
47.0

Task: Test system AGTR1 (Homo sapiens, UniProt P30556); read-out DiscoveRx β-arrestin2 Ymax (%); what value for CCOc1nc2cccc(C(=O)O)c2n1Cc1ccc(-c2cc(N3CC(C)(C)c4ccccc43)ccc2C(=O)O)cc1 ?
Output: 49.0

Task: Also CCCCC1=NC2(CCCC2)C(=O)N1Cc1ccc(-c2cc(-c3ccc(C(=O)NC)cc3)ccc2-c2nn[nH]n2)cc1 , if possible.
Output: 28.1
